Compiled literature IC50, tested on SIK3 (Homo sapiens).
Sequence (Q9Y2K2 whole entry): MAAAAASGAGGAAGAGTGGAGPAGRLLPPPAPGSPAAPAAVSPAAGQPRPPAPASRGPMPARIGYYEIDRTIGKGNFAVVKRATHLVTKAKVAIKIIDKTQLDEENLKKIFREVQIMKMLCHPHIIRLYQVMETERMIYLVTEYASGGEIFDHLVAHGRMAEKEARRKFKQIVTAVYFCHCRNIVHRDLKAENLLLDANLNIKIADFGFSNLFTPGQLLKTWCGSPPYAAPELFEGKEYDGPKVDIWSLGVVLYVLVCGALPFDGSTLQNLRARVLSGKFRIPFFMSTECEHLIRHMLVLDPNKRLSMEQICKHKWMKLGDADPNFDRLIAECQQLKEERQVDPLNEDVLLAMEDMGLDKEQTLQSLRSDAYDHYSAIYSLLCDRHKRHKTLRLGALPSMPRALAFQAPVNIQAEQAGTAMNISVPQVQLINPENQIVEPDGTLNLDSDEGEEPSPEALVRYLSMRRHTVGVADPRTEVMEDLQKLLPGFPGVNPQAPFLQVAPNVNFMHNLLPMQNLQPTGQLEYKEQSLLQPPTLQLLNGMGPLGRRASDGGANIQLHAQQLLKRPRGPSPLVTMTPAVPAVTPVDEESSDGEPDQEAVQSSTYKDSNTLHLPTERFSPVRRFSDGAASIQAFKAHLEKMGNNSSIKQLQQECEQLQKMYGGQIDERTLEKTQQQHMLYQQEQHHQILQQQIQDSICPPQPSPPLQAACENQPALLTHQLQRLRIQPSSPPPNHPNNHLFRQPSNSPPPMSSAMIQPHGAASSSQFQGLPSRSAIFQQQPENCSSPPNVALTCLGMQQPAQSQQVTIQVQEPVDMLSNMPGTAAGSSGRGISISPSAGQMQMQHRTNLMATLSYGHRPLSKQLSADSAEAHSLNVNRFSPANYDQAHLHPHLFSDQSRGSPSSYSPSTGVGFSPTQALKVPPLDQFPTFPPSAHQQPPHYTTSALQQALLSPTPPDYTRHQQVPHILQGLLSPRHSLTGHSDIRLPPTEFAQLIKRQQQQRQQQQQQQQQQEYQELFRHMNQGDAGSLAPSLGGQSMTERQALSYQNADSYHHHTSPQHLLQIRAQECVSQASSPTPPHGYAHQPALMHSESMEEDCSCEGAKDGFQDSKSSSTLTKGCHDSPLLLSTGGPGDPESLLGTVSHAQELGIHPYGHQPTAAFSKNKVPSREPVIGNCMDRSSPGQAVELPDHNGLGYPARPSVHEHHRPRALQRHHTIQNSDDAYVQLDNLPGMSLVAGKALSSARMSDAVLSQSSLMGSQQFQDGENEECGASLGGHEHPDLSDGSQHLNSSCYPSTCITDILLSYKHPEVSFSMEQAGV
measurement_type: IC50 (nM)

Here are 4 compounds together with their reported answers.
- compound: "Cc1ccc(Nc2cc3ncn(-c4ccc(C(C)O)c(-n5nc(C#N)cc5C)n4)c3cn2)nn1 (stereo not shown)"
  IC50 [nM]: 3
- compound: "COc1nc2c(cc1Nc1nnc(C)cc1C(=O)N(C)C)ncn2-c1ccc(C#N)c(-n2nc(OC(F)F)cc2C)c1"
  IC50 [nM]: 207
- compound: "CC[C@H](Nc1ncnc2[nH]c(O)nc12)c1oc2ccccc2c(=O)c1-c1cccc(F)c1"
  IC50 [nM]: 237
- compound: "Cc1ccc(Nc2cnc3c(c2)ncn3-c2cc(F)c(C(C)O)c(-n3nc(C#N)cc3C)c2)nn1 (stereo not shown)"
  IC50 [nM]: 6

a. Cc1ccc(Nc2cc3ncn(-c4ccc(C(C)O)c(-n5nc(C#N)cc5C)n4)c3cn2)cn1 (stereo not shown)
b. Cc1ccc(Nc2cnc3c(-c4ccc(C(C)O)c(-n5nc(C(F)F)cc5C)c4)cnn3c2)nn1 (stereo not shown)
c. Cc1ccc(Nc2cnc3c(-c4ccc(C(C)O)c(-n5nc(C#N)cc5C)c4)cnn3c2)nn1 (stereo not shown)
d. Cc1ccc(Nc2cnc3c(c2)ncn3-c2ccc(C(C)O)c(-n3nc(C#N)cc3C)c2)nn1 (stereo not shown)
e. Cc1ccc(Nc2cc3ncn(-c4ccc(C(C)O)c(-n5nc(C(F)F)cc5C)n4)c3cn2)nn1 (stereo not shown)
Ascending sort, IC50. List the labels, following the order given in the request.
c, d, b, e, a
